Sourced from patent US20250027068

target-system: pooled human IgG (human IgG1, 2, 3 and 4)
test-readout: Enzyme Activity Endpoint Assay: Fc (ng/µL)
Numbers only here, please. The scale is ng/µL.

Fill in: Enzyme Activity Endpoint Assay: Fc of PRT-442 (protein) MSQTEDSESLQRLRDIEDFQAEKKKQNVVYTKWLDGVDVKDHDFRKIVDGNIAYYATPLLNGRGFYDINKDFNRDNDKCAAAVAANMFHYWLDRNRDNVDRFLRQNPEKHGIIELPDGQLKLSDFLNTYESDDGYRDKSKLFDFISNNFNGPVWTDKLLDNYINGYAYNYKYGRTIEDPTKNTSKINFFKEVFNEKILTNNHSIRNQNEFSVLLSEALYTGKAIGLSYGPAGLRHSLGHIISVWGADLDADGNVVAIYVTDSDDKKLTIGDERVGLKRYKISTDDEGRLRLTAYEETHNTGGQIRGLWTLDTGKQAWADYFDKTEQTGTDQAEQ is ___
169

Fill in: Enzyme Activity Endpoint Assay: Fc of PRT-255 (protein) MVTSVWTKGVTPPTNFTYGEDVLHAPYVANQGWYDITKTFNGKDDLLCGAATAGNMLHWWFDQNKEQIENYLKKHPEKQKINFNGEQMFDVKEAIDTKDSQLDSKLFEYFLEKAFPNLSTKHLGVFPDHVIDMFINGYRLSLLNHGPTPVKRGSKDPRGGIFDAVFTRGDQSKLLTNRHDFKEKTLKEISDLIKQELTEGKALGISHTYANVGINHVINLWGADFDAEGNLEAIAVTDSDSNASIGMKKYFVGVNSSGKVAISAKEIEEDNIGAQVLGLFTLSTGQDIWNQTN is ___
178
